The reported measurements were obtained from patent US20240317847A1.

IC50, RGA 2 overview
SYSTEM: T1, murine IL-11 (mouse, UniProt P47873 22-199)
T1 sequence: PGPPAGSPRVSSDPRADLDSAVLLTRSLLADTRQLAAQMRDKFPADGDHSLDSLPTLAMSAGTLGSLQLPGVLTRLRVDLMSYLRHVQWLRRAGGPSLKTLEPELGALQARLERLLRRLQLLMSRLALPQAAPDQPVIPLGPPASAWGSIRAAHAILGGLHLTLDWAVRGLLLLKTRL
TEST_DESCRIPTION: cell-based or functional assay
Kindly provide the numeric value in nM only, without the unit symbol.

Answered examples (2):
{"columns": ["BINDER", "ENDPOINT", "MEAS_VALUE"],
 "data": [
  ["TPP-31301 (antibody, IgG4, V domains shown) VH: EVQLLESGGGLVQPGGSLRLSCAASGFTFSHYDMNWLRQAPGKGLEWVGVISYEGSNKFYADFVKGRFTISRDNSKNTLYLQMNSLRAEDTAVYYCARTPGSHFDYWGQGTLVTVSS VL: QSVLTQPPSASGTPGQRVTISCSGSSSNIGNNAVNWYQQLPGTAPKLLIYYDDLLPSGVPDRFSGSKSGTSASLAISGLRSEDEADYYCSAWDDSLQGVVFGGGTKLTVL", "IC50, RGA 2", 1.77],
  ["TPP-31300 (antibody, IgG4, V domains shown) VH: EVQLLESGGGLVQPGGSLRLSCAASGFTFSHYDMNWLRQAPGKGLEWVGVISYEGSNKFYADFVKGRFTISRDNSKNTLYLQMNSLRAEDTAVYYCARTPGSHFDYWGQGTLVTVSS VL: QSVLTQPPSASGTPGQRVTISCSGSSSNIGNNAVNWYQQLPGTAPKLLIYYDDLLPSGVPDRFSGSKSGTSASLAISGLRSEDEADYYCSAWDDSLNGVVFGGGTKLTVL", "IC50, RGA 2", 0.81]
]}

IC50, RGA 2 reading for TPP-31286 (antibody, IgG4, V domains shown) VH: QVQLLESGGGLVQPGGSLRLSCAASGFTFSHYDMNWLRQAPGKGLEWVGVISYDGSNKFYADFVKGRFTISRDNSKNTLYLQMNSLRAEDTAVYYCARTPGSHFDYWGQGTLVTVSS VL: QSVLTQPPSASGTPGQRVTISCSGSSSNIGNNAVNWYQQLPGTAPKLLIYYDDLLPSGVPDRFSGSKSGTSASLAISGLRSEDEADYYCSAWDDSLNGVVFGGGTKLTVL : 13
